- target-entity: human recombinant GR (Homo sapiens, UniProt P04150)
- Sequence (P04150 whole entry): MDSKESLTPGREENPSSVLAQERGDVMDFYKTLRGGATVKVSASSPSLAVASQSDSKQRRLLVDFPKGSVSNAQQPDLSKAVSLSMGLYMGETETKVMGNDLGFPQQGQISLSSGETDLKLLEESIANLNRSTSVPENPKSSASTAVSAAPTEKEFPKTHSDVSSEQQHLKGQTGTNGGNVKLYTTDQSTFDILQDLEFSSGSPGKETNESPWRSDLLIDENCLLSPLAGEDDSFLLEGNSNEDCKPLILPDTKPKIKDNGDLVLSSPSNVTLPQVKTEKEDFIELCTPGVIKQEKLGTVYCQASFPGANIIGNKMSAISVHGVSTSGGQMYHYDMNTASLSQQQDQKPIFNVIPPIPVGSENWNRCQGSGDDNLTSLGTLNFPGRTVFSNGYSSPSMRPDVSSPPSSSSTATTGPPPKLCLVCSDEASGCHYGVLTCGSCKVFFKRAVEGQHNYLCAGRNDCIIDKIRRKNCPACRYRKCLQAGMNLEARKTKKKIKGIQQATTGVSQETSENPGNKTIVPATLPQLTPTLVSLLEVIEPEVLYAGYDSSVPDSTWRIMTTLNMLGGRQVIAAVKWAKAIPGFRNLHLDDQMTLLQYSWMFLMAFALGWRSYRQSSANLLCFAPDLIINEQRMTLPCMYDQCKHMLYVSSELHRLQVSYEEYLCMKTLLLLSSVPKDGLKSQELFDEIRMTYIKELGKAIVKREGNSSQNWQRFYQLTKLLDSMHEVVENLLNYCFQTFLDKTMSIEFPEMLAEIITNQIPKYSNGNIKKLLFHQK
- assay-explanation: Human Glucocorticoid Receptor (GR) Fluorescence Polarisation (FP) Binding Assay
- test-parameters: Ki from IC50 by ligand depletion correction; displacement of Fluorome GS Red
In this section, each of the compounds is paired with its reported Ki.

Examples with answers:
CCn1nccc1S(=O)(=O)N1CC[C@H]2Cc3c(cnn3-c3ccc(F)cc3)C[C@]2(C(=O)c2cc(C(F)(F)F)ccn2)C1 [Example 2L] ... > 1 nM
CC(C)n1ncc(S(=O)(=O)N2CC[C@H]3Cc4c(cnn4-c4ccc(F)cc4)C[C@]3(C(=O)c3cscn3)C2)n1 [Example 2AJ] ... < 0.5 nM
CCCn1cc(S(=O)(=O)N2CC[C@H]3Cc4c(cnn4-c4ccc(F)cc4)C[C@]3(C(=O)c3cc(C(F)(F)F)ccn3)C2)cn1 [Example 2D] ... < 0.5 nM
O=C(c1ccccn1)[C@]12Cc3cnn(-c4ccc(F)cc4)c3C[C@@H]1CCN(S(=O)(=O)c1ccc(F)c(F)c1)C2 [Example 1C] ... > 1 nM
CC(C)n1cc(S(=O)(=O)N2CC[C@H]3Cc4c(cnn4-c4ccc(F)cc4)C[C@]3(C(=O)c3ccccn3)C2)nn1 [Example 2AF] ... > 1 nM
CCn1ncc(S(=O)(=O)N2CC[C@H]3Cc4c(cnn4-c4ccc(F)cc4)C[C@]3(C(=O)c3cc(C(F)(F)F)ccn3)C2)n1 [Example 2O] ... 0.5 to 1 nM
Cn1ncc(S(=O)(=O)N2CC[C@H]3Cc4c(cnn4-c4ccc(F)cc4)C[C@]3(C(=O)c3cc(C(F)(F)F)ccn3)C2)n1 [Example 2C] ... 0.5 to 1 nM
Cn1ncc(S(=O)(=O)N2CC[C@H]3Cc4c(cnn4-c4ccc(F)cc4)C[C@]3(C(=O)c3ccccn3)C2)n1 [Example 2AC] ... > 1 nM
Cn1nncc1S(=O)(=O)N1CC[C@H]2Cc3c(cnn3-c3ccc(F)cc3)C[C@]2(C(=O)c2cc(C(F)(F)F)ccn2)C1 [Example 2X] ... > 1 nM
O=C(c1cc(C(F)(F)F)ccn1)[C@]12Cc3cnn(-c4ccc(F)cc4)c3C[C@@H]1CCN(S(=O)(=O)c1cn[nH]n1)C2 [Example 2AE] ... > 1 nM

Short answer for Cn1cc(S(=O)(=O)N2CC[C@H]3Cc4c(cnn4-c4ccc(F)cc4)C[C@]3(C(=O)c3cc(C(F)(F)F)ccn3)C2)nn1 [Example 2P] : Ki was > 1 nM

Short answer for O=C(c1ccccn1)[C@]12Cc3cnn(-c4ccc(F)cc4)c3C[C@@H]1CCN(S(=O)(=O)c1ccc(C(F)(F)F)cc1)C2 [Example 1A] : Ki was 0.5 to 1 nM

Short answer for CC(C)n1ncc(S(=O)(=O)N2CC[C@H]3Cc4c(cnn4-c4ccc(F)cc4)C[C@]3(C(=O)c3cc(C(F)(F)F)ccn3)C2)n1 [Example 2AD] : Ki was < 0.5 nM
